# Experimental target: AChE (Electrophorus electricus, UniProt O42275)
# Construct: The enzymes AChE and BuChE were obtained from electric eel and equine serum, respectively; from tissue; host or cells: electric eel
# Sequence (O42275 24-633): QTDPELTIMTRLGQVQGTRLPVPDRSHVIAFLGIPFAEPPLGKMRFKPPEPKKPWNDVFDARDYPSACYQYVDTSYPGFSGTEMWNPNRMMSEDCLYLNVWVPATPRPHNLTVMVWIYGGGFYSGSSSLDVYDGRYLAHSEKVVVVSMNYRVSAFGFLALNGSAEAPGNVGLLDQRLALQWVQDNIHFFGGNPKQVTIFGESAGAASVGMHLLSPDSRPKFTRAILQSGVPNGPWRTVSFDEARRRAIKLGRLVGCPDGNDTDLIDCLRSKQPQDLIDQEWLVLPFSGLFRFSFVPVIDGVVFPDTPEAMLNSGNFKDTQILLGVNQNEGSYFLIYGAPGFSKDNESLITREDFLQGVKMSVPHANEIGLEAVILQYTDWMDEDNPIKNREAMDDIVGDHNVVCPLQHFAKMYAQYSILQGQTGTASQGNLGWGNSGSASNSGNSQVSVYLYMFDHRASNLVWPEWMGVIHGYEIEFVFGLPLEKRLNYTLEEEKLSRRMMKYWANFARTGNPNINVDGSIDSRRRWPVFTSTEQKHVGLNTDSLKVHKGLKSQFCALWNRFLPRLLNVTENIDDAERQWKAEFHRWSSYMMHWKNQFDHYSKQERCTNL
# Measurement protocol: biochemical
# Measurement parameters: AChE from electric eel, Ellman's method, n = 3; read-out: AChEI (IC50 (nM))
Reported property: log10 of IC50 (log10 of the value in nM)
In our notation, the value equals log10 of IC50 in nM.

Example results:
smiles_string=O=C(/C=C/c1ccccc1)CC(=O)/C=C/c1ccccc1 reported_measurement=3.42
smiles_string=Cc1ccc(/C=C/C(=O)CC(=O)/C=C/c2ccc(C)cc2)cc1 reported_measurement=2.87
smiles_string=CN(C)c1ccc(/C=C/C(=O)CC(=O)/C=C/c2ccc(N(C)C)cc2)cc1 reported_measurement=3.51
smiles_string=O=C(/C=C/c1ccc(Cl)cc1)CC(=O)/C=C/c1ccc(Cl)cc1 reported_measurement=2.05

So what's the measured log10 of IC50 for this one? COc1ccc(/C=C/C(=O)CC(=O)/C=C/c2ccc(OC)cc2)cc1
2.67

Values compiled from paper PMC9029618.
